experimental system: Human GLP-1 receptor (Homo sapiens, UniProt P43220)
Construct: The full-length cDNA was cloned in pcDNA3.1(+); expressed in transfected cells
Sequence (P43220 24-463): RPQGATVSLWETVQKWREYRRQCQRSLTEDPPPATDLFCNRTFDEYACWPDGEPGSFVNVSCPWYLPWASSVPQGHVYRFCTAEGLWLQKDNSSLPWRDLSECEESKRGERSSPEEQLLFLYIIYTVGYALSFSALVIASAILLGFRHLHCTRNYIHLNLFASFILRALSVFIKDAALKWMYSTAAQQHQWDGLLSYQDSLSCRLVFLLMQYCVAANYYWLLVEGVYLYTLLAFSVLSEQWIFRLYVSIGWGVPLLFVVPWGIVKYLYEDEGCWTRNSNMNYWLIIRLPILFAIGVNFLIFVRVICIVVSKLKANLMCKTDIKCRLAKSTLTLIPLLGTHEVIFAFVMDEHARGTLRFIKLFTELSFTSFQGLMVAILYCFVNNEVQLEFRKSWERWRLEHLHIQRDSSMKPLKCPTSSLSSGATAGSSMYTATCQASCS
Format: cell-based
measurement parameters: 1 nM test compound
metric: Human GLP-1 R activity (cAMP release), % activity with respect to control (%)

compound="CCc1cc(OC)ccc1-c1ccc(CC(NC(=O)[C@H](CC(=O)O)NC(=O)[C@H](CO)NC(=O)[C@@H](NC(=O)C(C)(Cc2ccccc2F)NC(=O)[C@@H](NC(=O)CNC(=O)[C@H](CCC(N)=O)NC(=O)C(C)(C)NC(=O)[C@@H](N)Cc2c[nH]cn2)[C@@H](C)O)[C@@H](C)O)C(=O)NC(Cc2ccc(-c3ccccc3C)nc2)C(N)=O)cc1 (single isomer, unassigned)" data_value=93
compound="CCc1cc(OC)ccc1-c1ccc(CC(NC(=O)[C@H](CC(=O)O)NC(=O)[C@H](CO)NC(=O)[C@@H](NC(=O)C(C)(Cc2ccccc2F)NC(=O)[C@@H](NC(=O)CNC(=O)[C@H](CCC(N)=O)NC(=O)C2(NC(=O)[C@@H](N)Cc3c[nH]cn3)CC2)[C@@H](C)O)[C@@H](C)O)C(=O)NC(Cc2ccc(-c3ccccc3C(F)(F)F)cc2)C(N)=O)cc1 (single isomer, unassigned)" data_value=96
compound="CCc1cc(OC)ccc1-c1ccc(CC(NC(=O)[C@H](CC(=O)O)NC(=O)[C@H](CO)NC(=O)[C@@H](NC(=O)C(C)(Cc2ccccc2F)NC(=O)[C@@H](NC(=O)CNC(=O)[C@H](CCC(N)=O)NC(=O)C2(NC(=O)[C@@H](N)Cc3c[nH]cn3)CC2)[C@@H](C)O)[C@@H](C)O)C(=O)NC(Cc2ccc(-c3ccccc3C)nc2)C(N)=O)cc1 (single isomer, unassigned)" data_value=99
